Entry source: patent US20130060020A1

# Test system: Aβ-40
# PROTOCOL DETAILS: Aβ-40 MSD 3-plex ELISA, conditioned media of 2B7 cells
# Format: cell-based
# RUN PARAMETERS: Homo sapiens, 5 hours treatment, read-out: Aβ 40 IC50
pIC50: −log10 of the molar value.

MOLECULE	TEST SYSTEM	pIC50
CCO[C@@H]([C@H]1C[C@@H](C)[C@H]2[C@H](O1)[C@H](O)[C@@]1(C)[C@@H]3CC[C@H]4C(C)(C)[C@@H](O[C@H]5CN(C(C)(C)C6CN(C7COC7)C6)CCO5)CC[C@@]45C[C@@]35CC[C@]21C)C(C)(C)O [Compound I-15]	Aβ-40	5.30 to 6.00
CCO[C@@H]([C@H]1C[C@@H](C)[C@H]2[C@H](O1)[C@H](O)[C@@]1(C)[C@@H]3CC[C@H]4C(C)(C)[C@@H](O[C@H]5CN(CC6CN(C(CO)CO)C6)CCO5)CC[C@@]45C[C@@]35CC[C@]21C)C(C)(C)O [Compound I-73]	Aβ-40	5.30 to 6.00
CCO[C@@H]([C@H]1C[C@@H](C)[C@H]2[C@H](O1)[C@H](O)[C@@]1(C)[C@@H]3CC[C@H]4C(C)(C)[C@@H](O[C@H]5CN(C6CCN(C)CC6)CCO5)CC[C@@]45C[C@@]35CC[C@]21C)C(C)(C)O [Compound I-29]	Aβ-40	5.30 to 6.00
CCO[C@@H]([C@H]1C[C@@H](C)[C@H]2[C@H](O1)[C@H](O)[C@@]1(C)[C@@H]3CC[C@H]4C(C)(C)[C@@H](O[C@H]5CN(CC6(O)CN(CCOC)C6)CCO5)CC[C@@]45C[C@@]35CC[C@]21C)C(C)(C)O [Compound I-46]	Aβ-40	6.00 to 6.30
CCO[C@@H]([C@H]1C[C@@H](C)[C@H]2[C@H](O1)[C@H](O)[C@@]1(C)[C@@H]3CC[C@H]4C(C)(C)[C@@H](O[C@H]5CN(C6(C)CN(C7CCC7)C6)CCO5)CC[C@@]45C[C@@]35CC[C@]21C)C(C)(C)O [Compound I-27]	Aβ-40	5.30 to 6.00
